Values compiled from PubChem BioAssay (NCI).

test system: NCI-H226 lung; assay: NCI tumour cell line growth inhibition, 48 h
experimental.endpoint: TGI (µM)

>>> result("CC(C)(C)c1cc(C(=O)O)c(C(c2ccccc2)c2ccccc2C(=O)O)c(C(=O)O)c1 (centres undefined)")
76.7
>>> result("C=C(C[N+](C)(C)C)N/N=C/c1oc(-c2ccc(OC)c(OC)c2)c(-c2ccc(OC)c(OC)c2)c1[N+](=O)[O-]")
66.3
>>> result("CN1C=C(C(N)=O)C2CC(O)[C@@](NC(=O)CS(N)(=O)=O)(C(=O)O)C2C1 (some centres undefined)")
8.52
>>> result("O=C(O[C@@H](/C=C/c1ccccc1)P1(=O)N(Cc2ccccc2)[C@@H]2CCCC[C@H]2N1Cc1ccccc1)c1ccccc1")
9.58

###

tested on: MDA-N; assay: NCI tumour cell line growth inhibition, 48 h
experimental.endpoint: TGI

>>> result("CCOP(=O)(COCCn1nc(Br)c(=O)[nH]c1=O)OCC")
"> 100 µM"
>>> result("COC(=O)C1=C(C(=O)OC)C(C(=O)OC)C(C(=O)OC)C(C(=O)OC)(C(=O)OC)C(C(=O)OC)=C1C(=O)OC (stereo unspecified)")
"31.2 µM"
>>> result("N#Cc1ccnc(C(=O)N2CCCC2C(=O)O)c1 (stereo unspecified)")
"> 100 µM"
>>> result("COc1ccc(C(=C2C(=O)OC(=O)C2=C(C)C)c2ccc(OC)cc2)cc1")
"> 100 µM"
>>> result("O=C1CCCC2=C1CC1=C(CCCC1=O)N2c1ccc(-c2ccccc2)cc1")
"> 100 µM"
>>> result("CC1CCc2sc3[nH]c(=S)n(C)c(=O)c3c2C1 (stereo unspecified)")
"> 100 µM"

###

system: CAKI-1 renal; experiment: NCI tumour cell line growth inhibition, 48 h
This section presents compounds with their documented TGI values.
experimental.endpoint: TGI (µM)

>>> result("O=C(Nc1cccc(Cl)c1)c1cc(Cl)ccc1O")
5.79
>>> result("C(/C=C/N1CCCC1)=C\\c1nc(N2CCCC2)c2ccccc2n1")
35.3
>>> result("O=C(/C(=N/Nc1cn[nH]c(=O)c1Cl)c1ccccc1)c1ccccc1")
93.1
>>> result("COc1ccccc1Cn1c2c(c3cc(O)ccc31)C(=O)c1ccccc1C2=O")
69.7

###

tested on: M14 melanoma; assay: NCI tumour cell line growth inhibition, 48 h
experimental.endpoint: TGI (µM)

>>> result("COc1ccc2c(c1)CCC(CN1CCN(CCOC(c3ccccc3)c3ccccc3)CC1)C2O (stereo not given)")
29.1
>>> result("CN1C=C(C(N)=O)C2CC(O)[C@@](NC(=O)CS(N)(=O)=O)(C(=O)O)C2C1 (stereo not given in full)")
2.8
>>> result("COC(=O)C1=C(C(=O)OC)C(C(=O)OC)C(C(=O)OC)C(C(=O)OC)(C(=O)OC)C(C(=O)OC)=C1C(=O)OC (stereo not given)")
29.8
>>> result("N#CC1=C(N)Oc2c(sc3c(Br)cccc23)C1c1ccc(F)cc1 (stereo not given)")
14.9
>>> result("Clc1sc(Cl)c2c1[C@H](Br)C[C@@H]2Cl")
54.5
>>> result("CN(C)CN1C(=O)/C(=N\\n2c(-c3ccncc3)n[nH]c2=S)c2ccccc21")
70.4
>>> result("CC[C@H](C)[C@H](NC(=O)N[C@@H](C)c1ccccc1)C(=O)N(C)[C@H](C[C@@H](OC(C)=O)c1nc(C(=O)N[C@@H](Cc2ccccc2)C[C@H](C)C(=O)OC)cs1)C(C)C")
46.7
>>> result("COc1ccc2nc3cc(Cl)ccc3c(Nc3ccc(O)c(CN4CCCC4)c3)c2c1")
3.54
>>> result("CC(C)c1ccc2c(c1)c(SC(C)(C)C)c(CC(C)(C)C(=O)O)n2Cc1ccc(Cl)cc1")
36.5
>>> result("Cc1cc(C(=O)Nc2cc(Nc3ncccc3-c3ncnc4nc[nH]c34)ccc2F)cc(C(C)(C)C#N)c1")
1.12
>>> result("Cc1cc(Nc2cc(N3CCN(C)CC3)nc(C#Cc3ccccc3)n2)n[nH]1")
14.7
>>> result("C/C(=C\\CO)CC[C@@H]1[C@@]2(C)CCCC(C)(C)[C@@H]2CC[C@@]1(C)O")
53.6
>>> result("C#CCn1cc(C=C2C(=O)NC(=S)NC2=O)c2cc(Cl)ccc21")
4.76
>>> result("C=C1C(=O)C23CC1CCC2C12CO[C@@]3(O)[C@@H](O)C1C(C)(C)C=CC2=O (stereo not given in full)")
6.1
>>> result("N#CC1=C(N)NC(=S)C(C#N)C12Nc1ccccc1S2 (stereo not given)")
32
>>> result("O=C1c2cccnc2C(=O)c2c1nc1ccccc1c2-c1ccc2c3c(nc4ccccc42)C(=O)c2cccnc2-c13")
4.55
>>> result("Cc1cc(C)c2nccc(NCCCN(C)C)c2c1[N+](=O)[O-]")
33.7
>>> result("O=C1C=CC(=O)c2c(O)c(N3CCN(c4ncccn4)CC3)c(Cl)c(O)c21")
3.45

###

system: SK-MEL-28 melanoma; assay: NCI tumour cell line growth inhibition, 48 h
This section presents compounds with their documented TGI values.
experimental.endpoint: TGI

>>> result("CCOc1cccc(/C=N/NC(=O)Cc2ccc(Nc3ccnc(C(F)(F)F)c3)cc2)c1O")
"> 100 µM"
>>> result("CN1CCN(CCCOc2ccc3ncnc(Nc4ccc(Oc5cccc(F)c5)c(Cl)c4)c3c2)CC1")
"3.11 µM"
>>> result("CC1OC2OC3C(OCC(O)C3O)OC(=O)[C@]34CCC(C)(C)CC3C3=CCC5[C@@]6(C)C[C@H](O)[C@H](OC7OC(CO)C(O)C(O)C7OC7OC(COC(=O)CC(C)(O)CC(=O)OC1C(OC1OC(CO)C(O)C(O)C1O)C2O)C(O)C(O)C7O)[C@@](C)(CO)C6CC[C@@]5(C)[C@]3(C)CC4 (stereo partly drawn)")
"2.58 µM"
>>> result("Cc1ccc2nc(Nc3ccccc3C)c(Nc3ccccc3C)nc2c1")
"> 100 µM"
>>> result("CC12CCC(=O)[C@@]1(C)CCCC2=O (stereo partly drawn)")
"> 100 µM"
>>> result("Fc1ccc(-c2cc(-c3cn[nH]c3-c3ccccn3)ccn2)cc1")
"> 25 µM"
>>> result("COc1ccc(C(=O)/C=C/c2ccc(OCCCCCCCCCCOc3ccc(/C=C/C(=O)c4ccc(OC)c(OC)c4)cc3)cc2)c(OC)c1")
"> 100 µM"
>>> result("NC(=O)c1c(NC(=O)c2cccc(C(F)(F)F)c2)sc2c1CCC(=O)C2")
"15.2 µM"

###

system: MDA-MB-231 breast; experiment: NCI tumour cell line growth inhibition, 48 h
experimental.endpoint: TGI (µM)

>>> result("CC[C@H](C)[C@H](NC(=O)N[C@@H](C)c1ccccc1)C(=O)N(C)[C@H](C[C@@H](OC(C)=O)c1nc(C(=O)N[C@@H](Cc2ccccc2)C[C@H](C)C(=O)OC)cs1)C(C)C")
63.8
>>> result("COc1ccccc1-c1nccc(COc2ccccc2C[C@@H](Oc2ncnc3sc(-c4ccc(F)cc4)c(-c4ccc(OCCN5CCN(C)CC5)c(Cl)c4C)c23)C(=O)O)n1")
3.29
>>> result("O=C1Nc2ccc(Br)cc2C1=Nc1ccc(Cl)cc1")
45.9
>>> result("COc1ccc2c(c1)CCC(CN1CCN(CCOC(c3ccccc3)c3ccccc3)CC1)C2O (stereo not given)")
29.7
>>> result("CC(C)(C)C#CI1OC(=O)c2ccccc21")
34
>>> result("Cc1cccc2c(N)c3cccc(C(=O)NCC[N+](C)(C)[O-])c3nc12")
75.1

###

system: CAKI-1 renal; test: NCI tumour cell line growth inhibition, 48 h
This section presents compounds with their documented TGI values.
experimental.endpoint: TGI

>>> result("CC(C)(C)C#CI1OC(=O)c2ccccc21")
"7.21 µM"
>>> result("Cc1cc(C(=O)Nc2cc(Nc3ncccc3-c3ncnc4nc[nH]c34)ccc2F)cc(C(C)(C)C#N)c1")
"> 100 µM"
>>> result("CCOC(=O)C(=Cc1c(-c2ccccc2)[nH]c2ccccc12)C(=O)OCC")
"> 49.8 µM"
>>> result("COc1ccc(-c2nc(/C=N/Nc3cc(C)nc4ccc(Br)cc34)c(C)o2)cc1")
"2.98 µM"
>>> result("COc1ccc2c(c1)c(-c1cc(-c3cn(C)c4ccc(OC)cc34)[nH]n1)cn2C")
"> 100 µM"
>>> result("O=c1n(CCCN2CCOCC2)nc2n1-c1ccc3ccccc3c1SC2")
"> 100 µM"
>>> result("CCC1(Cl)C(=O)NC(=O)N(C2CC(O)C(CO)O2)C1N=[N+]=[N-] (stereo not given)")
"> 100 µM"
>>> result("C=C1C(=O)C23CC1CCC2C12CO[C@@]3(O)[C@@H](O)C1C(C)(C)C=CC2=O (stereo not given in full)")
"4.13 µM"
>>> result("Cc1cc(S(N)(=O)=O)c(S/C(=N\\NS(=O)(=O)c2ccccc2)c2ccc(Cl)c(Cl)c2)cc1Cl")
"> 100 µM"
>>> result("O=C1Nc2ccc(Br)cc2C1=Nc1ccc(Cl)cc1")
"> 100 µM"
